Molecular target: human TLR9 (Homo sapiens, UniProt Q9NR96)
Construct: HA; host or cells: 293XL-hTLR9-HA (HEK293)
Test: HEK-TLR9 NF-κB-luciferase reporter, ODN2006 stimulation
Type: cell-based
Details: ASO 500 nM; relative to ODN2006 only, given as fraction
REPORTED_METRIC: TLR9 500 nM (averaged NF-κB-Luciferase level relative to ODN2006 condition)
Answers are plain numbers.

Record CCACATCCTGTGGCTC (antisense; LNA-modified, pattern not given here) [CAMSAP1-2906 LNA V1] , field TLR9 500 nM (averaged NF-κB-Luciferase level relative to ODN2006 condition): 0.337

Record TGGCCTCCCATCTCCT (antisense; LNA-modified, pattern not given here) [HPRT LNA-329 V1] , field TLR9 500 nM (averaged NF-κB-Luciferase level relative to ODN2006 condition): 0.277

Record GTGATGGCCTCCCATC (antisense; LNA-modified, pattern not given here) [HPRT LNA-333 V1] , field TLR9 500 nM (averaged NF-κB-Luciferase level relative to ODN2006 condition): 0.694

Record AACCCCTTTCACCATC (antisense; LNA-modified, pattern not given here) [MB21D1-689 LNA KL] , field TLR9 500 nM (averaged NF-κB-Luciferase level relative to ODN2006 condition): 0.076

Record TGGTCCACAACCCCTT (antisense; LNA-modified, pattern not given here) [MB21D1-697 LNA V1] , field TLR9 500 nM (averaged NF-κB-Luciferase level relative to ODN2006 condition): 0.587

Please look at the items below and tell me TLR9 500 nM (averaged NF-κB-Luciferase level relative to ODN2006 condition) for each one, in order.
1. GCCATGTTTCTTCTTG (antisense; LNA-modified, pattern not given here) [MB21D1-1248 LNA KL]
2. GTCTTCATCGGCCCTG (antisense; LNA-modified, pattern not given here) [CAMSAP1-2113 LNA V1]

1. 0.070
2. 0.617

###

Target: human TLR9 (Homo sapiens, UniProt Q9NR96)
Construct: HA; host or cells: 293XL-hTLR9-HA (HEK293)
Sequence (Q9NR96 26-1032): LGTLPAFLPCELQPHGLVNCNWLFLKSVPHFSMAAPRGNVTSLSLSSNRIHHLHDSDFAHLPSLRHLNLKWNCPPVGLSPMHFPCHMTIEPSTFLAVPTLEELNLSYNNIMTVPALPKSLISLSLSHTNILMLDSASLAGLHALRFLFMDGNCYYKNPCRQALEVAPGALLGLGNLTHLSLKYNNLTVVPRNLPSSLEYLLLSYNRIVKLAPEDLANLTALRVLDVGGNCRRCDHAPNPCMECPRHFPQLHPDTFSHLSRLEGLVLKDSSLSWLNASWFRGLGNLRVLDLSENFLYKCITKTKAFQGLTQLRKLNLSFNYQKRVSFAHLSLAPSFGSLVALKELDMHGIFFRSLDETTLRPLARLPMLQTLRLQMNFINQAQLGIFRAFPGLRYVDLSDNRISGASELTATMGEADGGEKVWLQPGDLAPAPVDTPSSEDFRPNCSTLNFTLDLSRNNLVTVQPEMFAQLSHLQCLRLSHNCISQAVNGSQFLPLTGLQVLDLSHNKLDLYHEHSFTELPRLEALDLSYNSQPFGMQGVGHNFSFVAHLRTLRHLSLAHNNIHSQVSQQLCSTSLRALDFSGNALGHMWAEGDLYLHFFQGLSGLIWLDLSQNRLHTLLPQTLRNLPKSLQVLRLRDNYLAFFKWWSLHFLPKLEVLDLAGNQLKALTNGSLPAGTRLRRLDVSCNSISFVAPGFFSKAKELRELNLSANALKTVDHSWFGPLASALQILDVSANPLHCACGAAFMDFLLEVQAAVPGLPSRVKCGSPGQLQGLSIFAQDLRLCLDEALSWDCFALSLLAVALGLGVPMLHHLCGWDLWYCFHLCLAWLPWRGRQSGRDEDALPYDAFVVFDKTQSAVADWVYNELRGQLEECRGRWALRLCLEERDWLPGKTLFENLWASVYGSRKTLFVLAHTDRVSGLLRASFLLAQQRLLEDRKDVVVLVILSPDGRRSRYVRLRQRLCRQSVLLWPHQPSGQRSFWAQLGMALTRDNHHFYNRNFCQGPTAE
Assay: HEK-TLR9 NF-κB-luciferase reporter, ODN2006 stimulation
Assay type: cell-based
Conditions: HEK-TLR9; 500 nM ASO 45 min, then 200 nM ODN2006 overnight; percentage of ODN2006 only
In the oligonucleotide strings, read from the 5' end, every base follows the letter of its sugar. An asterisk marks phosphorothioate; unmarked linkages are phosphodiester. Other units and linkages are bracketed, terminal groups are in braces. A string of capitals states the bases alone. d = 2'-deoxy (DNA); m = 2'-O-methyl
REPORTED_METRIC: TLR9-500 nM: averaged NF-κB-Luciferase relative to ODN2006

Answered examples (8):
Record mU*mG*mA*mU*mG*A*T*G*C*T*T*G*C*A*G*mG*mA*mG*mG*mC (mU*mG*mA*mU*mG*dA*dT*dG*dC*dT*dT*dG*dC*dA*dG*mG*mA*mG*mG*mC) [[LINC-PINT|283.1] , field TLR9-500 nM: averaged NF-κB-Luciferase relative to ODN2006: 65.76%

Record mU*mU*mG*mU*mG*A*A*A*A*G*A*T*T*A*T*mC*mU*mU*mC*mU (mU*mU*mG*mU*mG*dA*dA*dA*dA*dG*dA*dT*dT*dA*dT*mC*mU*mU*mC*mU) [[CDKN2B-AS1]2138] , field TLR9-500 nM: averaged NF-κB-Luciferase relative to ODN2006: 61.15%

Record mG*mU*mC*mC*mC*A*G*G*C*C*T*C*C*A*G*mU*mG*mU*mC*mU (mG*mU*mC*mC*mC*dA*dG*dG*dC*dC*dT*dC*dC*dA*dG*mU*mG*mU*mC*mU; antisense) [[CDKN2B-AS1]2223] , field TLR9-500 nM: averaged NF-κB-Luciferase relative to ODN2006: 67.61%

Record mG*mU*mC*mC*mC*A*T*C*C*C*T*T*C*T*G*mC*mU*mG*mC*mC (GUCCCATCCCTTCTGCUGCC; antisense; sugars from the 5' end m5 d10 m5, all phosphorothioate, methylation of C not given here) [[LINC-PINT]102] , field TLR9-500 nM: averaged NF-κB-Luciferase relative to ODN2006: 101.22%

Record mA*mG*mA*mA*mA*G*A*A*G*C*A*A*A*G*A*mU*mU*mC*mA*mA (AGAAAGAAGCAAAGAUUCAA; sugars from the 5' end m5 d10 m5, all phosphorothioate, methylation of C not given here) [[CDKN2B-AS1]1519] , field TLR9-500 nM: averaged NF-κB-Luciferase relative to ODN2006: 68.12%

Record mA*mA*mG*mC*mA*G*T*C*T*C*C*A*T*G*T*mC*mC*mC*mA*mG (mA*mA*mG*mC*mA*dG*dT*dC*dT*dC*dC*dA*dT*dG*dT*mC*mC*mC*mA*mG; antisense) [[CDKN2B-AS1]2236] , field TLR9-500 nM: averaged NF-κB-Luciferase relative to ODN2006: 69.71%

Record mA*mG*mG*mA*mU*T*A*A*A*A*C*A*G*A*T*mU*mA*mA*mU*mA (mA*mG*mG*mA*mU*dT*dA*dA*dA*dA*dC*dA*dG*dA*dT*mU*mA*mA*mU*mA) [[CDKN2B-AS1] 1775] , field TLR9-500 nM: averaged NF-κB-Luciferase relative to ODN2006: 63.48%

Record mG*mU*mU*mC*mA*G*T*C*A*G*A*T*C*G*C*mU*mG*mG*mG*mA (mG*mU*mU*mC*mA*dG*dT*dC*dA*dG*dA*dT*dC*dG*dC*mU*mG*mG*mG*mA) [[LINC-PINT]412 KL] , field TLR9-500 nM: averaged NF-κB-Luciferase relative to ODN2006: 77.50%

Please look at the items below and tell me TLR9-500 nM: averaged NF-κB-Luciferase relative to ODN2006 for each one, in order.
1. mU*mG*mG*mC*mG*T*A*G*T*T*T*C*T*C*T*mU*mC*mC*mU*mC (mU*mG*mG*mC*mG*dT*dA*dG*dT*dT*dT*dC*dT*dC*dT*mU*mC*mC*mU*mC; antisense) [[LINC-PINT]937.1]
2. mU*mG*mA*mC*mA*T*T*T*C*G*T*G*G*C*T*mC*mC*mU*mA*mC (mU*mG*mA*mC*mA*dT*dT*dT*dC*dG*dT*dG*dG*dC*dT*mC*mC*mU*mA*mC; antisense) [[LINC-PINT]523 KL]
3. mU*mC*mU*mC*mU*G*G*T*C*C*C*A*T*C*C*mC*mU*mU*mC*mU (UCUCUGGTCCCATCCCUUCU; antisense; sugars from the 5' end m5 d10 m5, all phosphorothioate, methylation of C not given here) [[LINC-PINT]108]
4. mG*mA*mU*mG*mG*T*T*C*C*A*G*T*C*C*C*mU*mC*mU*mU*mC (GAUGGTTCCAGTCCCUCUUC; antisense; sugars from the 5' end m5 d10 m5, all phosphorothioate, methylation of C not given here) [[LINC-PINT]1497.1]
5. mC*mA*mC*mC*mC*T*T*C*T*C*T*C*T*G*G*mU*mC*mC*mC*mA (CACCCTTCTCTCTGGUCCCA; antisense; sugars from the 5' end m5 d10 m5, all phosphorothioate, methylation of C not given here) [[LINC-PINT]116]
6. mA*mG*mU*mC*mU*C*C*A*T*G*T*C*C*C*A*mG*mG*mC*mC*mU (mA*mG*mU*mC*mU*dC*dC*dA*dT*dG*dT*dC*dC*dC*dA*mG*mG*mC*mC*mU; antisense) [[CDKN2B-AS1]2232]
7. mG*mC*mA*mG*mU*C*T*C*C*A*T*G*T*C*C*mC*mA*mG*mG*mC (GCAGUCTCCATGTCCCAGGC; antisense; sugars from the 5' end m5 d10 m5, all phosphorothioate, methylation of C not given here) [[CDKN2B-AS1]2234]
8. mU*mU*mA*mA*mA*T*A*A*T*C*T*A*G*T*T*mU*mG*mA*mA*mG (UUAAATAATCTAGTTUGAAG; sugars from the 5' end m5 d10 m5, all phosphorothioate, methylation of C not given here) [[CDKN2B-AS1]132]

1. 79.89%
2. 118.29%
3. 100.51%
4. 80.47%
5. 102.85%
6. 122.20%
7. 90.04%
8. 98.18%

Record mC*mA*mG*mU*mG*T*T*T*T*T*A*A*T*T*T*mU*mG*mU*mA*mG (mC*mA*mG*mU*mG*dT*dT*dT*dT*dT*dA*dA*dT*dT*dT*mU*mG*mU*mA*mG; antisense) [[CDKN2B-AS1]613] , field TLR9-500 nM: averaged NF-κB-Luciferase relative to ODN2006: 92.59%
